Measured values drawn from ChEMBL document CHEMBL4622974 for this set.

Quick reference for AUC(0-inf) among some molecules
Experiment: AUCinfinity in CB17 SCID mouse at 10 mg/kg, po after 0.25 to 24 hrs by LC/MS/MS method
Assay type: ADME, organism-based
Set-up: dose 10 mg/kg, time infinity, route oral
Settings: in vivo
measured metric: AUC(0-inf) (µM·h)

>  <smiles record>
COc1cc(-c2cncc(-c3ccc(C4CCN(C)CC4)cc3)c2C)cc(OC)c1OC

>  <recorded result>
32.4

$$$$
>  <smiles record>
COc1cc(-c2cncc(-c3ccc(C4=CCNCC4)cc3)c2C)cc(OC)c1OC

>  <recorded result>
82.5

$$$$
>  <smiles record>
COc1cc(-c2cncc(-c3ccc(N4CCN(S(C)(=O)=O)CC4)cc3)c2C)cc(OC)c1OC

>  <recorded result>
2.97

$$$$
>  <smiles record>
COc1cc(-c2cncc(-c3ccc(OC4CCNCC4)cc3)c2C)cc(OC)c1OC

>  <recorded result>
65.8

$$$$
>  <smiles record>
COc1cc(-c2cncc(-c3ccc(N4CCNCC4)cc3)c2C)cc(OC)c1OC

>  <recorded result>
51.7

$$$$

###

Assay: Volume of distribution at steady state in SD rat at 2 mg/kg, iv after 0.25 to 24 hrs by LC/MS/MS method
Format: ADME, organism-based
Settings: in vivo, read-out: Vdss
measured metric: Vd (L/kg)

>  <smiles record>
COc1cc(-c2cncc(-c3ccc(N4CCNCC4)cc3)c2C)cc(OC)c1OC

>  <recorded result>
5.22

$$$$
>  <smiles record>
COc1cc(-c2cncc(-c3ccc(C4CCN(C)CC4)cc3)c2C)cc(OC)c1OC

>  <recorded result>
4.33

$$$$

###

Assay: Ratio of drug level in brain to plasma in NOD/SCID mouse at 25 mg/kg, po measured at 2 hr post dose on day 14 by LC-MS/MS analysis
Assay type: ADME, organism-based
Conditions: read-out: BPR

>  <smiles record>
COc1cc(-c2cc(-c3ccc(N4CCNCC4)cc3)cnc2C)cc(OC)c1OC

>  <Kp at 2 h>
0.8

$$$$

###

Molecular target: Protein-tyrosine kinase 6 (Homo sapiens)
Sequence (Q13882 whole entry): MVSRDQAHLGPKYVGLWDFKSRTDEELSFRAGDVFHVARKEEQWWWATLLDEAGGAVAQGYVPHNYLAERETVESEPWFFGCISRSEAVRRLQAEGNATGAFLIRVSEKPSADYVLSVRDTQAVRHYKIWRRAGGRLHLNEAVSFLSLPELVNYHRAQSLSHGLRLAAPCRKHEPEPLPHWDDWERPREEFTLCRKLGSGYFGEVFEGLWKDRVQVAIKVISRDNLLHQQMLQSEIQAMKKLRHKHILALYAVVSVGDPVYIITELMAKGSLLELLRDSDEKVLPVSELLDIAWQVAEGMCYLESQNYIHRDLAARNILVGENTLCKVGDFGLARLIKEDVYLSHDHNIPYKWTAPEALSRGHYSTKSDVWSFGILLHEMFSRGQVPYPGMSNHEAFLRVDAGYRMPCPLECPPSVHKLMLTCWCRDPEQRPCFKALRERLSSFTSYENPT
measured metric: IC50

>  <smiles record>
COc1cc(-c2cncc(-c3ccc(N4CCNCC4)cc3)c2C)cc(OC)c1OC

>  <recorded result>
336 to 924 nM

$$$$

###

The entries below come with measured Kp at 4 h values attached.
Assay: Ratio of drug level in brain to plasma in CB17 SCID mouse at 100 mg/kg, po measured at 4 h
Format: ADME, organism-based
Conditions: brain and plasma, read-out: BPR
measured metric: Kp at 4 h

>  <smiles record>
COc1cc(-c2cncc(-c3ccc(N4CCNCC4)cc3)c2C)cc(OC)c1OC

>  <measured metric>
Kp at 4 h

>  <recorded result>
1.1

$$$$
>  <smiles record>
COc1cc(-c2cncc(-c3ccc(C4CCN(C)CC4)cc3)c2C)cc(OC)c1OC

>  <measured metric>
Kp at 4 h

>  <recorded result>
1.55

$$$$

###

The reader will find reported pIC50 values listed item by item below.
Target: UniProt:P36897
Assay: Inhibition of recombinant human ALK5 expressed in HEK293 cells transfected with CAGA-luciferase and Renilla luciferase reporter after 24 hrs by dual luciferase reporter assay
Format: cell-based
pIC50: −log10 of the molar value.

>  <smiles record>
COc1cc(-c2cncc(-c3ccc(C4CCN(C)CC4)cc3)c2C)cc(OC)c1OC

>  <relation operator>
=

>  <pIC50>
5.48

$$$$
>  <smiles record>
COc1cc(-c2cncc(-c3ccc(N4CCN(C)CC4)cc3)c2C)cc(OC)c1OC

>  <relation operator>
<

>  <pIC50>
5.30

$$$$
>  <smiles record>
COc1cc(-c2cncc(-c3ccc(N4CCCNCC4)cc3)c2C)cc(OC)c1OC

>  <relation operator>
=

>  <pIC50>
5.34

$$$$
>  <smiles record>
COc1cc(-c2cncc(-c3ccc(N4CCN(C(C)=O)CC4)cc3)c2C)cc(OC)c1OC

>  <relation operator>
<

>  <pIC50>
5.30

$$$$
>  <smiles record>
COc1cc(-c2cncc(-c3ccc(N4CCNCC4)cc3)c2C#N)cc(OC)c1F

>  <relation operator>
=

>  <pIC50>
5.82

$$$$
>  <smiles record>
COc1cc(-c2cncc(-c3ccc(N4CCN(CCF)CC4)cc3)c2C)cc(OC)c1OC

>  <relation operator>
<

>  <pIC50>
5.30

$$$$
>  <smiles record>
COc1cc(-c2cncc(-c3ccc(N4CCNCC4)cc3)c2N)cc(OC)c1OC

>  <relation operator>
<

>  <pIC50>
5.30

$$$$
>  <smiles record>
COc1cc(-c2cncc(-c3ccc(OC4CCNCC4)cc3)c2C)cc(OC)c1OC

>  <relation operator>
=

>  <pIC50>
5.72

$$$$
>  <smiles record>
COc1cc(-c2cncc(-c3ccc(C4=CCN(C)CC4)cc3)c2C)cc(OC)c1OC

>  <relation operator>
=

>  <pIC50>
5.11

$$$$
>  <smiles record>
COc1cc(-c2cncc(-c3ccc(N4CCNCC4)cc3)c2F)cc(OC)c1OC

>  <relation operator>
=

>  <pIC50>
5.66

$$$$
>  <smiles record>
CCc1c(-c2ccc(N3CCNCC3)cc2)cncc1-c1cc(OC)c(OC)c(OC)c1

>  <relation operator>
<

>  <pIC50>
5.30

$$$$
>  <smiles record>
COc1cc(-c2cncc(-c3ccc(C4CCNCC4)cc3)c2C)cc(OC)c1OC

>  <relation operator>
=

>  <pIC50>
5.47

$$$$
>  <smiles record>
COc1cc(-c2cncc(-c3ccc(C4=CCNCC4)cc3)c2C)cc(OC)c1OC

>  <relation operator>
=

>  <pIC50>
5.12

$$$$
>  <smiles record>
COc1cc(-c2cncc(-c3ccc(OC4CCN(C)CC4)cc3)c2C)cc(OC)c1OC

>  <relation operator>
=

>  <pIC50>
5.68

$$$$
>  <smiles record>
COc1cc(-c2cncc(-c3ccc(N4CCOCC4)cc3)c2C)cc(OC)c1OC

>  <relation operator>
<

>  <pIC50>
5.30

$$$$
>  <smiles record>
COc1cc(-c2cncc(-c3ccc(N4CCN(C(=O)N(C)C)CC4)cc3)c2C)cc(OC)c1OC

>  <relation operator>
<

>  <pIC50>
5.30

$$$$
>  <smiles record>
COc1cc(-c2cncc(-c3ccc(N4CCNCC4)cc3)c2C#N)cc(OC)c1OC

>  <relation operator>
=

>  <pIC50>
6.17

$$$$
>  <smiles record>
COc1cc(-c2cncc(-c3ccc(CN4CCN(C)CC4)cc3)c2C)cc(OC)c1OC

>  <relation operator>
<

>  <pIC50>
5.30

$$$$

###

Experiment: Cmax in CB17 SCID mouse at 10 mg/kg, po after 0.25 to 24 hrs by LC/MS/MS method
Assay type: ADME, organism-based
Parameters: dose 10 mg/kg, route oral
Conditions: in vivo
The entries below are paired with their reported Cmax.
measured metric: Cmax (µM)

>  <smiles record>
COc1cc(-c2cncc(-c3ccc(C4CCN(C)CC4)cc3)c2C)cc(OC)c1OC

>  <measured metric>
Cmax

>  <result units>
µM

>  <recorded result>
4.74

$$$$
>  <smiles record>
COc1cc(-c2cncc(-c3ccc(N4CCN(S(C)(=O)=O)CC4)cc3)c2C)cc(OC)c1OC

>  <measured metric>
Cmax

>  <result units>
µM

>  <recorded result>
1.43

$$$$
>  <smiles record>
COc1cc(-c2cncc(-c3ccc(C4=CCNCC4)cc3)c2C)cc(OC)c1OC

>  <measured metric>
Cmax

>  <result units>
µM

>  <recorded result>
6.62

$$$$
>  <smiles record>
COc1cc(-c2cncc(-c3ccc(N4CCNCC4)cc3)c2C)cc(OC)c1OC

>  <measured metric>
Cmax

>  <result units>
µM

>  <recorded result>
6.16

$$$$
>  <smiles record>
COc1cc(-c2cncc(-c3ccc(OC4CCNCC4)cc3)c2C)cc(OC)c1OC

>  <measured metric>
Cmax

>  <result units>
µM

>  <recorded result>
4.71

$$$$

###

Tested on: sodium channel site 2
Assay: Inhibition of rat sodium channel site2 at 10 uM incubated for 60 mins by scintillation counting method

>  <smiles record>
COc1cc(-c2cncc(-c3ccc(N4CCNCC4)cc3)c2C)cc(OC)c1OC

>  <inhibition at 1 h, 10 µM>
72%

$$$$

###

Listed here: items and their measured IC50.
Biological target: TGF-beta receptor type-1 (Homo sapiens)
Sequence (P36897 whole entry): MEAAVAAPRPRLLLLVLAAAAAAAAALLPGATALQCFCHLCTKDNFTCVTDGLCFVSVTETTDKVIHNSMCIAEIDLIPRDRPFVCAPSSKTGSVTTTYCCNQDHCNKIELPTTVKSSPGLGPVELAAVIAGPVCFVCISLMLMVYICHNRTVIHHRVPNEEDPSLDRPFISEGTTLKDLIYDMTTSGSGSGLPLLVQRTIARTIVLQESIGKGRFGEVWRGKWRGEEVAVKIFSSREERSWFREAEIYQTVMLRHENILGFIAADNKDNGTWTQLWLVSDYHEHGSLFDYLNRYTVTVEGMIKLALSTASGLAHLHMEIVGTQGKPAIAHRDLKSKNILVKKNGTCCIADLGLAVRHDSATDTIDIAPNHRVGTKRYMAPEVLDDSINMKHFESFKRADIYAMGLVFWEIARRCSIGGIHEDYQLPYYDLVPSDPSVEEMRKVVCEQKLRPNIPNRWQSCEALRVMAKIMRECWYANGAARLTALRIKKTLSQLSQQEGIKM
Test: Inhibition of recombinant human ALK5 expressed in HEK293 cells transfected with CAGA-luciferase and Renilla luciferase reporter after 24 hrs by dual luciferase reporter assay
Type: cell-based
measured metric: IC50

>  <smiles record>
COc1cc(-c2cncc(-c3ccc(N4CCNCC4)cc3)c2OC)cc(OC)c1OC

>  <recorded result>
> 5 µM

$$$$
>  <smiles record>
COc1cc(-c2cncc(-c3ccc(N4CCN(C(C)C)CC4)cc3)c2C)cc(OC)c1OC

>  <recorded result>
1.82 µM

$$$$
>  <smiles record>
COc1cc(-c2cncc(-c3ccc(N4CCNCC4)cc3)c2C(F)(F)F)cc(OC)c1OC

>  <recorded result>
> 5 µM

$$$$
>  <smiles record>
COc1cc(-c2cncc(-c3ccc(N4CCNCC4)cc3)c2Cl)cc(OC)c1OC

>  <recorded result>
9.45 µM

$$$$
>  <smiles record>
COc1cc(-c2cncc(-c3ccc(N4CCS(=O)(=O)CC4)cc3)c2C)cc(OC)c1OC

>  <recorded result>
> 5 µM

$$$$
>  <smiles record>
COc1cc(-c2cncc(-c3ccc(N4CCN(S(C)(=O)=O)CC4)cc3)c2C)cc(OC)c1OC

>  <recorded result>
6.39 µM

$$$$
>  <smiles record>
COc1cc(-c2cncc(-c3ccc(N4CCNCC4)cc3)c2C2CC2)cc(OC)c1OC

>  <recorded result>
> 5 µM

$$$$
>  <smiles record>
COc1cc(-c2cncc(-c3ccc(N4C[C@@H](C)N[C@@H](C)C4)cc3)c2C)cc(OC)c1OC

>  <recorded result>
1.43 µM

$$$$
>  <smiles record>
COc1cc(OC)cc(-c2cncc(-c3ccc(N4CCNCC4)cc3)c2C)c1

>  <recorded result>
> 5 µM

$$$$
